- testSummary: soluble fraction after stress (log2 fold change); higher = more stays soluble; pooled small domains, quantitative proteomics
- conditionLabel: stress: pH 4
readout: soluble fraction (log2)
Lab note: record just the number, no unit beside it.

// known answers, use as guide
HMDGPGAGGRFLAEDLGTGKMTLEALQRHYVTLVYSRTGKYEETARRLEIDRRTVKKYLDEELLAELRET -0.0817
HMRRTEKEIEQDVMRAIATIISEKGISSVTIKEVSNLSKTDVIVLERRFKNDEGLIKAYTSQ 0.0814
HMAEVDDESIKLYDGGYQSNTTKSRLNALLSEFGYDTEHVFQKQFEWFISIFDLTEKAMRTVPFSNGMRL -0.257
HMGGASVTDQQIRDFVSAHTDDPMAIYKAAVANGISSARLAQVTGISIADIEAFVRKNNLPSF -0.206
HMGPVDFYQMFISELQHLAEKPVTVDALIESTQLHKSQLTEWLKRAVDDGVVKKLNRPARFQVKNK 0.136

Q: Record request: soluble fraction (log2) value, item HMEVPQKTLEILEPWRGRKGFLIPVLQAVQHEFGYVPKEAIETVSREMKMPTAEIYGVVTFYAQFH
Result: -0.513

Q: Record request: soluble fraction (log2) value, item HMVKRAYGEYVNVKLTDADLSKLKADFPADWQERIERLSTYMASTGKTYKNHLATIRNWARRDAERVSA
Result: -0.292

Q: Record request: soluble fraction (log2) value, item HMTVTLTTLRNGSTGAQVKTLQRLLSAMDYYNGETDGKFGISTAAAVKAFQRAKRLTVDGIVGKNTWTALL
Result: -0.0337

Q: Record request: soluble fraction (log2) value, item HMTKEEFLYELKKELSALDSAEATAYNLRYYSDYIDAEIAKGRSEQEVLDELGNPRWLVNSIKESG
Result: -0.521

====

- testSummary: soluble fraction after stress (log2 fold change); higher = more stays soluble; pooled small domains, quantitative proteomics
- conditionLabel: stress: pH 4
Tag: Y if measured soluble fraction (log2) is not below -0.2, N if it is.

Examples from the recorded data:
HMLKLSGEESQQLALRLREELARRRITRQGLADAAKISISTLEQVLAGRRTFTLATIVRLEEGLGIKLL Y
HMETPDLTQLNPILDEYRGQKGAVIPVLQKAQKIYGFLPPEVLRRIAAGMRVPLSKIYGVATFYSQFY Y
HMTRTEYMAQLEKYLKKLPHKEFQEAITFFNEYFDEAGPEKETAIMEELGSPKEAASELITNILNRHI Y

Q: Please check the record HMPPNHADLKSSGLKATLPRLKILEIFQNSQVRHLSAEDVYKLLLAENLDVGLATVYRVLTQFEQAGL and state if its soluble fraction (log2) is at or above -0.2.
Result: N

====

- testSummary: soluble fraction after stress (log2 fold change); higher = more stays soluble; pooled small domains, quantitative proteomics
- conditionLabel: stress: pH 4
# key: entry, value: soluble fraction (log2)
Lab note: record just the number, no unit beside it.

// known answers, use as guide
HMTFPAILRELLEKHPQTGKRTTLKELGEAVGTRQQSISLYRNGDTQPSPDILVRIAAFFGVSVDYLL -0.198
HMNKRKQRINDLMDLIREQPALSIKNLAEMLNVSEMTIRRDMAYLKSNNLLNRAHGMNFLNS 0.132
HMGDFLLTPHRGRSADFVIGNPPYIRLEDVPNDISDAYRAEYASMPGRADIHVGFYEKGLDL -0.506
HMNNFNVVVGKAIKNSFNTRENYITINAGKVLGIKTDMGVINDKGIVGIVEKTSKDFATIQSVLNIKS 0.22
HMELDIGKKAIVIEKIDPEAGTGRVRIEGVDWGAKTADSSVIEKGETVVVKAKGAAFVTVAK 0.0671
HMTDAEQHEALLFKQVVDGLPQTLRDTFVLSRHAGMTYAEISAHTGTPIKTVESRMAKALELIAQRMR 0.0158
HMDKAGWLPARVRLADYPALKQLAWQVQGVDELTPREALGIYERNWRHLDEAALLPRERNLIDALRLAFG -0.16
HMNIMNINQALNVLNLKGTVSKEELAKAYKKMAIKYHPDRNPTGVEMMKVINSAYEFLKGLNLEEIKH 0.252

Q: Record request: soluble fraction (log2) value, item HMSNWYGTVVKIQPRPNAQAADTAVVKLLDGSEHRFPVWADHLTTIEVGSRLKKLSGGWDPVLMDPEETF
Result: -0.573

====

- testSummary: soluble fraction after stress (log2 fold change); higher = more stays soluble; pooled small domains, quantitative proteomics
- conditionLabel: stress: pH 4
readout: soluble fraction (log2)
Lab note: record just the number, no unit beside it.

// known answers, use as guide
HMYSNDEIVNYLKNYIFDNFNLNELSDEELEEKIAELVQQQFAGQLLSLDEKVKLVNQVYSSIR -0.139
HMLKDGPIGAYADSVIRDIIEKMERFSKEHINVDMLKIHEKIMLIDEPIIRMALLDEFHRVSHDN -1.2
HMSNLVEVPAVIGRMKEDAITMLISAGLEPAVTYDEYPLVKENLVADQSVAPGQKVEKGSFVTITVSRS 0.22
HMVTDSGEIEKLVDEVIDNNPDQVQQFREGKQQVLSYLVGQAMKLSRGKANPNQVNQFLRDKL 0.152
HMVTDVDELEKLIQKVLDSNSSQVDEYRQGKEKVFGFFVGAVMKLTKGQADPDVVNQLLKEKLSGRK -0.0516
HMGIRAFDPEAFDERLKEFFSMIAPYKKLDTRSLQPHFPHHAKEVAERIRQLAEAGKIKVDGFYISEL -0.0943
HMKSVILQLHPETLRWIREEAQADMADASVIQLLNDWELGTKKPTLSQVQKLSHETHIPFGYFFLKEKPA -0.203
HMGVSLNELAYRRFKQALVTLSYKPGEYLNTAQVMNDLDMGRTPINQAIHRLANEGLLQVIPRKGVMVS 0.026

Q: Record request: soluble fraction (log2) value, item HMRDTAKTLLAMEVVGENNKKNLQAFGIQKGDQNYQTAVVVRLMQKALMEGDTSAIRLIGELTGD
Result: -0.44

Q: Record request: soluble fraction (log2) value, item HMTELNNTQRAAVLLLALDEDSAAEVFKHLSAREVQEVSQEMAKLGNISHDQMRQVLDDFYDESEQF
Result: -1.01

====

- testSummary: soluble fraction after stress (log2 fold change); higher = more stays soluble; pooled small domains, quantitative proteomics
- conditionLabel: stress: pH 4
readout: soluble fraction (log2)
Lab note: record just the number, no unit beside it.

HMARRLELEDIPVDEVLFTASRNLVDAIEVMDPSRQAPMIQPWLKQALEWAVGALGFSKEDAVATLTSD -0.264
HMHGTIHSAAYGGDIEAVKKFLAAGADVNANGGGRTPLDLAIQVKNTEIADLLRKHGGKTGDELKA 0.398
HMHKYQVGETVYYTSPTFGRAAATGSYIVVKLLPSEGDDYQYRIKSSGEAFERVAKESQLDR 0.11
HMTESIHVGSKVTINNNAKRWATGQNIYSGVKGKTYTVIQMNGSRLLLDKVISWINKGDVHLPGS 0.0896

Q: Record request: soluble fraction (log2) value, item HMTDDALIGKTAQVTVAIKPGSVGQITARVGDERVERLARASADAEIAAGSLVTIKSIAGDSVIVAPE
Result: 0.22

Q: Record request: soluble fraction (log2) value, item HMISKQQRQALILDIIQKQSITSQEALLTELQRHHVMTTQTTVSRDIRALGIVRIKDVNGELSYQQLQ
Result: -0.0545

Q: Record request: soluble fraction (log2) value, item HMKKYLNIYNIIVNKIESKEYQSNDKLPSEKELMDQYNVSRDTVRKSLNMLEQNGYIQKTKGKGSFVLDIN
Result: 0.409

====

- testSummary: soluble fraction after stress (log2 fold change); higher = more stays soluble; pooled small domains, quantitative proteomics
- conditionLabel: stress: pH 4
readout: soluble fraction (log2)

// known answers, use as guide
HMTRDAQLAALERLMDDPSPVVRKAVLKGVQAAGTEGLLWLQQLSKNQTLGPYALALLTELR -0.0392
HMAEQEELDAIRPDLDGQEIMDILGIKPGREVGAARNFLLELRLDEGPLGYDEAVSRLLTWWAERT -1.2
HMIGKLTSSKLAAIHKMKTNELLAHFTEKGFLNINDAGKYILTQQGKDVGAEFKTSQYGGYFLWPENIE 0.0031
HMDYKSKLQELVQTEKRTVEYKLVDESGPAHNKSFTFEVVISGIKYGSGTGASKKIAEQNAAKEALEKLA 0.144

Let us examine a further case.
Q: Record request: soluble fraction (log2) value, item HMKASEMKKGQTIKIDGVLYVIVDFQHVKLSKGGAVYQTKLRNLAAGGIRDIRIRAEEVLEDA
Result: -0.515

====

- testSummary: soluble fraction after stress (log2 fold change); higher = more stays soluble; pooled small domains, quantitative proteomics
- conditionLabel: stress: pH 4
readout: soluble fraction (log2)
Lab note: record just the number, no unit beside it.

HMSVFMIIVLKQHAPQEFVDMLMSSIKAKGVQIDVSKGARKTILGLVGNTSVIDREQIAGYEYVDKVIRV -0.289

Let us examine a further case.
Q: Record request: soluble fraction (log2) value, item HMFKNWMPFDEARIFVRKLKFNSHDEFRKYLKANEINIPSKPWSTYKGKGWVSIGDFLGTHR
Result: -0.308
